Value source: paper PMC2248166

# TARGET ENTITY: HLA B*5101 (Homo sapiens, UniProt P01889, A329T/A93T/A95T/C349S/D138N/D201E/D98Y/E187L/E204Q/E69T/G107R/I218V/K202T/L105A/L119W/N104I/Q94N/R106L/R155S/R180L/S101N/S121T/S35A/S48A/V306I/V36M/Y195H/Y91F)
# Assay type: binding
Threshold-based label: Normalized average relative binding affinity (ARB), HLA B*5101 under 0.1 gives true (1), Normalized average relative binding affinity (ARB), HLA B*5101 not under 0.1 gives false (0).

Example entries and their recorded answers appear below.
-- ask Strictly below 0.1: is that where Normalized average relative binding affinity (ARB), HLA B*5101 of XIXXXXXXX [3064.0028] sits?
-- reply true (1)

-- ask Same thing, different sequence: XXHXXXXXX [3064.0047]
-- reply false (0)

-- ask Same thing, different sequence: XXAXXXXXX [3064.0041]
-- reply false (0)

-- ask Same thing, different sequence: XTXXXXXXX [3064.0037]
-- reply true (1)

-- ask Same thing, different sequence: XXTXXXXXX [3064.0057]
-- reply false (0)

More entries:
-- ask Strictly below 0.1: is that where Normalized average relative binding affinity (ARB), HLA B*5101 of XXKXXXXXX [3064.0049] sits?
-- reply false (0)

-- ask Same thing, different sequence: FXXXXXXXX [3064.0005]
-- reply false (0)

-- ask Same thing, different sequence: PXXXXXXXX [3064.0013]
-- reply true (1)

-- ask Same thing, different sequence: GXXXXXXXX [3064.0006]
-- reply true (1)

-- ask Same thing, different sequence: MXXXXXXXX [3064.0011]
-- reply false (0)

-- ask Same thing, different sequence: XXPXXXXXX [3064.0053]
-- reply false (0)

-- ask Same thing, different sequence: XXYXXXXXX [3064.0060]
-- reply false (0)
